- tested.target: Voltage-gated inwardly rectifying potassium channel KCNH2 (Homo sapiens)
- Sequence (Q12809 whole entry): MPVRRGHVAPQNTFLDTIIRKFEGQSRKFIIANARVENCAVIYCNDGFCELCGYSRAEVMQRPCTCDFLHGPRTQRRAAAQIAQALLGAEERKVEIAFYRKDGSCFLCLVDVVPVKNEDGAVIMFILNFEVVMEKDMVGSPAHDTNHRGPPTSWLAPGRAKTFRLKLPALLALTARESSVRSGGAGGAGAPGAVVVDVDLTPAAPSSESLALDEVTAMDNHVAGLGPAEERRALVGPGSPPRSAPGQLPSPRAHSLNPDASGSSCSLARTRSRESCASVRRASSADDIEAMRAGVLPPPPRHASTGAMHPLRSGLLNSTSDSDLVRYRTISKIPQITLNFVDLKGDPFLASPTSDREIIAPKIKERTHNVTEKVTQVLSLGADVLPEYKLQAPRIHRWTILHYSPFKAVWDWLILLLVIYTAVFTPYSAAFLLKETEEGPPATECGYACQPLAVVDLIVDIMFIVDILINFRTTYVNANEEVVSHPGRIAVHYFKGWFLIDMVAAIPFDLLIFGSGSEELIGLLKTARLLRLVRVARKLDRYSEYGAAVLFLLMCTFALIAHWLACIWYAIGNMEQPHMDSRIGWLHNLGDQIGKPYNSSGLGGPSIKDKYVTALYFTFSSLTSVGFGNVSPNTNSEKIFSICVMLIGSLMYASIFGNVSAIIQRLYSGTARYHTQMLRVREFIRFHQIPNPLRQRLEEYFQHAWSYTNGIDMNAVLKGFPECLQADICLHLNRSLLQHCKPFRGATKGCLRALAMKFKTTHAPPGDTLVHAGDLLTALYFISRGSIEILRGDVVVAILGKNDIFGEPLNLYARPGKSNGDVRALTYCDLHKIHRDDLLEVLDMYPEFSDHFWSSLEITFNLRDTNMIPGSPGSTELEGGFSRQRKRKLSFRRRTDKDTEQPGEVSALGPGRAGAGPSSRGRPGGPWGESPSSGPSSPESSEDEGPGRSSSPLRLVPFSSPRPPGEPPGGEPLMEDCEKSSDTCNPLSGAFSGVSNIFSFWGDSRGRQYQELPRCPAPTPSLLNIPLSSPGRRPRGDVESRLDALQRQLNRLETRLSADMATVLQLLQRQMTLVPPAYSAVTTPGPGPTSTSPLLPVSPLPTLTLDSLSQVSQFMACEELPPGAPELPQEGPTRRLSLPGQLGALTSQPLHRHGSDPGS
The entries below come with measured IC50 values attached.

Some molecules with recorded IC50:
O=c1cc(N2CCOCC2)oc2c(-c3cccc4c3sc3ccccc34)cccc12 14 µM
O=C(CN1CCN(CCO)CC1)Nc1ccc(-c2cccc3c(=O)cc(N4CCOCC4)oc23)c2sc3ccccc3c12 > 30 µM

Req: Record request: IC50 value, item CN1CCN(CC(=O)Nc2ccc(-c3cccc4c(=O)cc(N5CCOCC5)oc34)c3sc4ccccc4c23)CC1
Resp: > 10 µM

---

- test.method.notes: Lipophilicity, log D of the compound
- Assay type: physicochemical
- condition.description: octanol/water
Some compounds, each annotated with its measured logD.
Number only, please.

CN1CCN(CC(=O)Nc2ccc(-c3cccc4c(=O)cc(N5CCOCC5)oc34)c3sc4ccccc4c23)CC1 3
O=C(CN1CCN(CCO)CC1)Nc1ccc(-c2cccc3c(=O)cc(N4CCOCC4)oc23)c2sc3ccccc3c12 2.7

Req: Entry CCN1CCN(CC(=O)Nc2ccc(-c3cccc4c(=O)cc(N5CCOCC5)oc34)c3sc4ccccc4c23)CC1 has what logD?
Resp: 3.05
